The measured values listed here are drawn from ChEMBL document CHEMBL1201862.

# Tested on: OVCAR-4
# TEST DETAILS: NCI tumour cell line growth inhibition, 48 h
Calls of active or inactive are those of the source. Cut-off read from the data, not from the text of the source: active = GI50 up to about 1.1 µM and inactive = higher.
Labels: 1 for active, 0 for inactive

• C1=N\c2ccc(cc2)/N=C\c2ccc(cc2)OCc2cccc(n2)COc2ccc/1cc2 = 0
• Cc1cn([C@@H]2O[C@H](CO[Si](C)(C)C(C)(C)C)[C@]3(O[C@H]3C(=O)NN)[C@H]2O[Si](C)(C)C(C)(C)C)c(=O)[nH]c1=O = 0
• NNc1nc2ccccc2c(=O)n1NC(=O)C(=O)Nc1cccc(C(F)(F)F)c1 = 0
• NC(CSC1c2ccccc2-c2ccccc21)C(=O)O (centres undefined) = 0
• Nn1c(Nc2ccc(S(=O)(=O)Nc3ncccn3)cc2)nnc(/C=C/c2c(O)ccc3ccccc23)c1=O = 0
• O=C(N/N=C(/c1nc2ccc([N+](=O)[O-])cc2[nH]c1=O)C(O)c1ccc([N+](=O)[O-])cc1)c1ccncc1 (centres undefined) = 0
• COC(=O)/C=C1\CCCN1CCc1cc2c(cc1CC#N)OCO2 = 0
• O=C1c2c(O)cccc2Cc2cc(CO)cc(O)c21 = 1
• COc1ccc(NC(=O)CSC(=O)c2ccccc2)c(SCCSSCCSc2cc(OC)ccc2NC(=O)CSC(=O)c2ccccc2)c1 = 0
• O=C1C=CC=C/C1=C1\N=C(c2ccccc2OCC(=O)c2ccc(Br)cc2)SS1 = 0
• CCCCCCCCCCCCCCCCCCOCC(O)CO (centres undefined) = 0
• Cn1cnnc1Sc1c([N+](=O)[O-])ncn1C = 0
• CCCCCCCCCCCCCCCCS(=O)(=O)c1ccc(NN)cc1 = 0
• O=C(Cc1cc[n+]([O-])cc1)C(=O)Nc1cc(Cl)c(Cl)cc1Cl = 0

---

# System: SN12C
# TEST DETAILS: NCI tumour cell line growth inhibition, 48 h
The source made the active and inactive calls. Rule as the data show it: active = GI50 up to about 1.1 µM and inactive = higher.
Labels: active, inactive

- CC1(C(=O)O)CCC[C@@]2(C)C1CC[C@@]1(C)c3cocc3CCC21 (some centres not stated): inactive
- CN(CCNC(=O)c1cn(C)c2c1ccc1cc(Cl)ccc12)CCNC(=O)c1cn(C)c2c1ccc1cc(Cl)ccc12: inactive
- CCCCCCCCCCCCCCCCS(=O)(=O)c1ccc(NN)cc1: inactive
- CC(CC(N)C(=O)O)C(=O)O (configuration not stated): inactive
- O=C(O)c1c2c(cc3c1CC1(Cc4ccccc4C1)C3)CCC2: inactive
- C=C1c2nc3ccccc3n2C=C(c2ccc(C)cc2)N1c1ccccc1: inactive
- C[C@]12CCC(O)CC1=CC[C@@H]1[C@@H]2CC[C@]2(C)C(O)[C@H](n3ccnc3)C[C@@H]12 (some centres not stated): inactive
- COc1cc(C2c3[nH]c4ccccc4c3C[C@H]3COC(=O)N23)cc(OC)c1OC (some centres not stated): active
- C/C1=N\[N-]C(=O)c2ccccc2C(=O)N/N=C(\C)c2cccc1n2.O=[N+]([O-])[O-].[Zn+2]: inactive
- C=CC1(CCC(Br)C(C)(C)Cl)CO1 (configuration not stated): inactive
- CCOc1ccc(/C=C(\Cl)c2ccc(OC)c(OC)c2)cc1: inactive
- Cc1cn([C@@H]2O[C@H](CO[Si](C)(C)C(C)(C)C)[C@]3(O[C@H]3C(=O)NN)[C@H]2O[Si](C)(C)C(C)(C)C)c(=O)[nH]c1=O: inactive
- C[C@]12C=CC(=O)C=C1CC[C@@H]1[C@@H]2CC[C@@]2(C)[C@H]1CC[C@]2(O)C(N)=O: inactive
- CCCc1nc(Cl)nc(Cl)c1Cl: active
- Cc1c(/C=N/NC(=S)Nc2ccc(Cl)cc2)c(=O)n(-c2ccccc2)n1C: inactive
- [N-]=[N+]=NC1=C(C(=O)c2ccccc2)C(=O)c2cccc3cccc1c23: inactive
- O=C(Nc1cccs1)c1c(O)[nH]c(=S)[nH]c1=O: inactive
